Entries and their IC50 values follow.
# assayed target: HCV polymerase (NS5B) type 1b (Hepatitis C virus genotype 1b)
# Construct: a region encoding NS5B (J Virol 1991 March, 65(3), 1105-13, 544 amino acids after deletion of 47 amino acids on the C-terminal); 6xHis (C); made in house; host or cells: Escherichia coli
# Sequence (P26663 2420-2963): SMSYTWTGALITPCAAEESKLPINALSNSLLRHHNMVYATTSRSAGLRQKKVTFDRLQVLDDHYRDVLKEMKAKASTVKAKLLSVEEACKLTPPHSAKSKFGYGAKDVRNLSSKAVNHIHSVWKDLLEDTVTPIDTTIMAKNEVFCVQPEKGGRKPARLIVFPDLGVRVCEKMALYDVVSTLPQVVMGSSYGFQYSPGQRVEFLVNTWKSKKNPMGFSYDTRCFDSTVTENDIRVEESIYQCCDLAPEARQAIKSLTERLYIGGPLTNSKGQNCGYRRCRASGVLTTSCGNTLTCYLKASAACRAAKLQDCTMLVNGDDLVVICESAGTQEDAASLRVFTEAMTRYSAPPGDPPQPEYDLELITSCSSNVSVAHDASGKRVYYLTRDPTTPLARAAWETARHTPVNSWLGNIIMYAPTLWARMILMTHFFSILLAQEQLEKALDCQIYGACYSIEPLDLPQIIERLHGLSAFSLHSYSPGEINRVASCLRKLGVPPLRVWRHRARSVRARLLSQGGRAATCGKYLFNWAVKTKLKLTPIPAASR
# method: Assay of enzyme (HCV polymerase) inhibitory activity, type 1b enzyme
# Type: biochemical, HCV BK strain (type 1b)
# condition parameters: HCV polymerase inhibitory activity IC50, 1b, type 1b enzyme

Some solved cases for reference:
compound=Cc1cc(=O)nc2sc(N3CCN(S(=O)(=O)c4ccc(C(F)(F)F)cc4)[C@@H](C(=O)NCc4ccc(OC(F)(F)F)cc4)C3)nn12 assay_readout=IC50 result="< 100 nM"
compound=CCC(F)(F)c1ccc(CNC(=O)[C@H]2CN(c3ccc4cnccc4n3)CCN2S(=O)(=O)c2ccc(OC(F)(F)F)cc2)cc1 assay_readout=IC50 result="< 100 nM"

For reference, reported IC50 for CCCCc1ccc(CNC(=O)[C@H]2CN(c3cnc4cncc(C(=O)O)c4n3)CCN2S(=O)(=O)c2ccc(CC)cc2)cc1 stands at < 100 nM

Measured IC50 of CC(C)(C)c1ncc2sc(N3CCN(S(=O)(=O)c4ccc(C(F)(F)F)cc4)[C@@H](C(=O)NCc4ccc(OC(F)(F)F)cc4)C3)nc2n1 : < 100 nM

Measured IC50 of CCC(F)(F)c1ccc(CNC(=O)[C@H]2CN(c3cnc4cnccc4n3)CCN2S(=O)(=O)c2ccc([N+](=O)[O-])cc2)cc1 : < 100 nM

Measured IC50 of CCCc1ccc(CNC(=O)[C@H]2CN(c3nc4cn[nH]c(=O)c4s3)CCN2S(=O)(=O)c2ccc(CC)cc2)cc1 : < 100 nM
